Biological target: T1, MLL4_(PHD2/3) D257K (human, UniProt O14686 227-324, D257K)
T1 construct: human MLL4 (KMT2D), aa 227-324; source: E. coli BL21-CodonPlus, purified as WT
T1 sequence (looked up): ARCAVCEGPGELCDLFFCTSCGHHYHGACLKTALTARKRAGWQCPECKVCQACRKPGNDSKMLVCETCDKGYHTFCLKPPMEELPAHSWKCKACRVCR
Test: other fluorescence titration; tryptophan fluorescence, 25 °C; 1.0 µM MLL4 PHD2/3 or MLL3 PHD2/3 with increasing peptide; excitation 295 nm; 20 mM Tris pH 7.2, 150 mM NaCl, 1 mM TCEP, 0.02% Tween20; average of three measurements
Conditions: both partners purified
ENDPOINT LABEL: pKd
Give bare numbers, as −log10 of the molar value.

Input: Suppose we examine the binder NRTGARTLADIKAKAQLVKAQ (peptide, UniProt Q76L83 650-670, looked up, also called ASXL2 (aa 650-670); MBH of ASXL2; source: synthetic peptide (SynPeptide)) [ASXL2 peptide (residues 650-670 of ASXL2)] ; what pKd value has been reported?
Output: 4.57
